# measured target: Serine/threonine-protein kinase PLK1 (Homo sapiens, UniProt P53350)
# Sequence (P53350 whole entry): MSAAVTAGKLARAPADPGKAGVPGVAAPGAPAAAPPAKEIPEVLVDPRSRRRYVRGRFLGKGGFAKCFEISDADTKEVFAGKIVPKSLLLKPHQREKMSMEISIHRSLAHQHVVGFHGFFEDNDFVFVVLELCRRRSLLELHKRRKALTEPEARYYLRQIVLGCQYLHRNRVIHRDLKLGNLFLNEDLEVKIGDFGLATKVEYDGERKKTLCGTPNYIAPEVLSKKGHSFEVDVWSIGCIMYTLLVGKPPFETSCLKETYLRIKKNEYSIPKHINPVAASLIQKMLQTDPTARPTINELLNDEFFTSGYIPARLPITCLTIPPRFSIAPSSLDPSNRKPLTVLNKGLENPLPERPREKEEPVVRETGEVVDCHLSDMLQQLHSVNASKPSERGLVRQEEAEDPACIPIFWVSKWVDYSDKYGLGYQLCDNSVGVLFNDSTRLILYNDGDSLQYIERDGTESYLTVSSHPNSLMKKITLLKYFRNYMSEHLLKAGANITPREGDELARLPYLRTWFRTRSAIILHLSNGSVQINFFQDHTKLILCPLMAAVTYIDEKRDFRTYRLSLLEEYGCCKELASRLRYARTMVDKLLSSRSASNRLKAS
measurement name: Kd (nM)
Numeric only. Scale: nM

In: Enter reported Kd observed with Serine/threonine-protein kinase PLK1 (Homo sapiens, UniProt P53350) for `C=CCn1c(=O)c2cnc(Nc3ccc(N4CCN(C)CC4)cc3)nc2n1-c1cccc(C(C)(C)O)n1`
Out: 3

---

# measured target: Wee1-like protein kinase 2 (Homo sapiens, UniProt P0C1S8)
measurement name: ΔTm (°C)
Please reply with the bare figure in °C and do not write the unit itself.

Worked cases, answers included:
In: Give its ΔTm value. Item: `CCOc1cc2ncc(C#N)c(Nc3ccc(F)c(Cl)c3)c2cc1NC(=O)/C=C/CN(C)C`
Out: 5.6

In: Requested read-out: ΔTm. Entry: `CNC(=O)c1nn(C)c2c1C(C)(C)Cc1cnc(Nc3ccc(N4CCN(C)CC4)cc3)nc1-2`
Out: 11.5

In: For the molecule shown here, `CN1CCN(CCOc2cc(OC3CCOCC3)c3c(Nc4c(Cl)ccc5c4OCO5)ncnc3c2)CC1` , give the reported ΔTm.
Out: 0.65

As a next step, examine the molecule that follows.
In: What does the data say about its ΔTm? Entry: `C=CCn1c(=O)c2cnc(Nc3ccc(N4CCN(C)CC4)cc3)nc2n1-c1cccc(C(C)(C)O)n1`
Out: 11.6

---

# measured target: Membrane-associated tyrosine- and threonine-specific cdc2-inhibitory kinase (Homo sapiens)
# Sequence (Q99640 whole entry, the tested form may be a part): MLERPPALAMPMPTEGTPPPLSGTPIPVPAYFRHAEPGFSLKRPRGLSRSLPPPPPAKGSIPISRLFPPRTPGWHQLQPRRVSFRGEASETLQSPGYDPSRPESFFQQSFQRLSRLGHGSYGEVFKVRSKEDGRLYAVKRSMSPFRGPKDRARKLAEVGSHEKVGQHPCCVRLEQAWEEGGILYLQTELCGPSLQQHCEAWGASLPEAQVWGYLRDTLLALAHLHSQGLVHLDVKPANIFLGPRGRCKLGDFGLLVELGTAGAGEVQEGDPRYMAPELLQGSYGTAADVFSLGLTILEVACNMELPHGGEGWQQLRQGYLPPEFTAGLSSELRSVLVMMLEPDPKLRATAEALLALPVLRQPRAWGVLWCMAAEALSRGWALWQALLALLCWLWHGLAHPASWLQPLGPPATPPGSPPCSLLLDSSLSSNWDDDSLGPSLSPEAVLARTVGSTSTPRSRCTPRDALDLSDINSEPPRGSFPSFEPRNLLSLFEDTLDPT
# method description: Binding affinity to recombinant human N-terminal His6-tagged Myt1 kinase domain (75 to 361 residues) by isothermal titration calorimetry
# reported conditions: read-out: Kd
Below, each entry is listed with its recorded Kd.
// return numeric value only (unit: nM, not printed)

In: Quick one: Kd for `CNC(=O)c1nn(C)c2c1C(C)(C)Cc1cnc(Nc3ccc(N4CCN(C)CC4)cc3)nc1-2` ?
Out: 990

In: Fill in: Kd of `CCOc1cc2ncc(C#N)c(Nc3ccc(F)c(Cl)c3)c2cc1NC(=O)/C=C/CN(C)C` is ___
Out: 1100

In: // returns reported Kd for input `CCN(CC)CCOc1ccc(Nc2ncc3cc(-c4c(Cl)cccc4Cl)c(=O)n(C)c3n2)cc1`
Out: 247

In: // returns reported Kd for input `COc1cc2c(Nc3cc(Cl)c(OC)c(Cl)c3)c(C#N)cnc2cc1OCCCN1CCN(C)CC1`
Out: 444

---

The next entries give measured ΔTm for Wee1-like protein kinase (Homo sapiens, UniProt P30291).
Quick note: give the figure in °C, leave out the unit.

In: Param readout= ΔTm; system= Wee1-like protein kinase (Homo sapiens, UniProt P30291); entry= `CNC(=O)c1nn(C)c2c1C(C)(C)Cc1cnc(Nc3ccc(N4CCN(C)CC4)cc3)nc1-2` ; returns value.
Out: 13.4

In: // map `C=CCn1c(=O)c2cnc(Nc3ccc(N4CCN(C)CC4)cc3)nc2n1-c1cccc(C(C)(C)O)n1` to recorded ΔTm (system: Wee1-like protein kinase (Homo sapiens, UniProt P30291))
Out: 15.4

In: Which measured ΔTm belongs to `COc1cc2c(Nc3cc(Cl)c(OC)c(Cl)c3)c(C#N)cnc2cc1OCCCN1CCN(C)CC1` , tested on Wee1-like protein kinase (Homo sapiens, UniProt P30291)?
Out: 10

In: Lab request: please report ΔTm under test system Wee1-like protein kinase (Homo sapiens, UniProt P30291) for CC(=O)NCC(=O)N1[C@@H]2CC[C@H]1c1ccc(Nc3ncc(C(F)(F)F)c(NC4CCC4)n3)cc12 (single isomer, unassigned)
Out: 7.9

Consider the additional compound presented here.
In: # returns recorded ΔTm (system: Wee1-like protein kinase (Homo sapiens, UniProt P30291)) for `CN1CCN(CCOc2cc(OC3CCOCC3)c3c(Nc4c(Cl)ccc5c4OCO5)ncnc3c2)CC1`
Out: 1.2

---

# method description: Binding affinity to human FLT3 D835V-mutant assessed as dissociation constant by quantitative real-time PCR method
measurement name: Kd (nM)
The reply should be a number in nM, with the unit left off.

In: Kd lookup needed for `C=CCn1c(=O)c2cnc(Nc3ccc(N4CCN(C)CC4)cc3)nc2n1-c1cccc(C(C)(C)O)n1` , thanks.
Out: 7.5

---

Listed molecules paired with reported pIC50
# Tested on: MDA-MB-231
# method description: Antiproliferative activity against human MDA-MB-231 cells measured after 72 hrs by CellTiter-Blue assay
# Format: functional, cell-based
# reported conditions: MDA-MB-231, 72 h
For clarity, pIC50 is expressed as the negative log10 of concentration in mol/L.

In: What measured pIC50 is associated with `COc1cc2c(Nc3cc(Cl)c(OC)c(Cl)c3)c(C#N)cnc2cc1OCCCN1CCN(C)CC1` on MDA-MB-231?
Out: 5.74

Next:
In: Write down the reported pIC50 of `C=CCn1c(=O)c2cnc(Nc3ccc(N4CCN(C)CC4)cc3)nc2n1-c1cccc(C(C)(C)O)n1` , test system: MDA-MB-231.
Out: 6.59

In: Enter reported pIC50 observed with MDA-MB-231 for `CCN(CC)CCOc1ccc(Nc2ncc3cc(-c4c(Cl)cccc4Cl)c(=O)n(C)c3n2)cc1`
Out: 6.80

---

# measured target: UniProt P0C1S8
# method description: Binding affinity to recombinant human N-terminal His6-tagged Wee2 kinase domain (202 to 492 residues) expressed in Escherichia coli BL21 (DE3) by isothermal titration calorimetry
# reported conditions: read-out: Kd
# Sequence (P0C1S8 whole entry): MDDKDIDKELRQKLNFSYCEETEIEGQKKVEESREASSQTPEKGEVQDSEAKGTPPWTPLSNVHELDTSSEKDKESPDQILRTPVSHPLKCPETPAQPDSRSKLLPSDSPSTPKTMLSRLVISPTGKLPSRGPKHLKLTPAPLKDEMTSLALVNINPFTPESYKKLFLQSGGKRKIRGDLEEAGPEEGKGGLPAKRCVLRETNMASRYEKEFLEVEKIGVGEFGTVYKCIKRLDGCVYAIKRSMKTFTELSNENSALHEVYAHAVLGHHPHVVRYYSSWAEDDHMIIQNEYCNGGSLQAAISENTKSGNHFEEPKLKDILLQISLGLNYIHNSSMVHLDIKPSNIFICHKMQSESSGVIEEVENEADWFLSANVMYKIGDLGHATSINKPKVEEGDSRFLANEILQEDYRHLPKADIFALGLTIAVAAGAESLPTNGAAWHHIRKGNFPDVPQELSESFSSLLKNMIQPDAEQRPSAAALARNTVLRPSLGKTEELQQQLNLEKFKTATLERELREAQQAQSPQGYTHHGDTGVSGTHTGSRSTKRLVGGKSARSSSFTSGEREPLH
# label = MET if Kd < 30 nM else NOT MET

In: Decide: Kd of `CCN(CC)CCOc1ccc(Nc2ncc3cc(-c4c(Cl)cccc4Cl)c(=O)n(C)c3n2)cc1` strictly below 30 nM?
Out: MET

In: API: query returns whether the compound falls strictly under 30 nM in Kd. Query: `COc1cc2c(Nc3cc(Cl)c(OC)c(Cl)c3)c(C#N)cnc2cc1OCCCN1CCN(C)CC1`
Out: MET

In: Please indicate whether the reported Kd of CC(=O)NCC(=O)N1[C@@H]2CC[C@H]1c1ccc(Nc3ncc(C(F)(F)F)c(NC4CCC4)n3)cc12 (single isomer, unassigned) is strictly below 30 nM.
Out: NOT MET

In: API: query returns whether the compound falls strictly under 30 nM in Kd. Query: `C=CCn1c(=O)c2cnc(Nc3ccc(N4CCN(C)CC4)cc3)nc2n1-c1cccc(C(C)(C)O)n1`
Out: MET

In: Identify whether the compound `CNC(=O)c1nn(C)c2c1C(C)(C)Cc1cnc(Nc3ccc(N4CCN(C)CC4)cc3)nc1-2` records Kd below 30 nM.
Out: MET

With those in mind, consider the next compound.
In: State whether 30 nM exceeds Kd recorded for `CCOc1cc2ncc(C#N)c(Nc3ccc(F)c(Cl)c3)c2cc1NC(=O)/C=C/CN(C)C` .
Out: NOT MET

---

# measured target: Wee1-like protein kinase (Homo sapiens, UniProt P30291)
# method description: Binding affinity to recombinant human N-terminal His6-tagged Wee1 kinase domain (291 to 575 residues) expressed in Escherichia coli BL21 (DE3) by isothermal titration calorimetry
# reported conditions: read-out: Kd
# Sequence (P30291 whole entry, the tested form may be a part): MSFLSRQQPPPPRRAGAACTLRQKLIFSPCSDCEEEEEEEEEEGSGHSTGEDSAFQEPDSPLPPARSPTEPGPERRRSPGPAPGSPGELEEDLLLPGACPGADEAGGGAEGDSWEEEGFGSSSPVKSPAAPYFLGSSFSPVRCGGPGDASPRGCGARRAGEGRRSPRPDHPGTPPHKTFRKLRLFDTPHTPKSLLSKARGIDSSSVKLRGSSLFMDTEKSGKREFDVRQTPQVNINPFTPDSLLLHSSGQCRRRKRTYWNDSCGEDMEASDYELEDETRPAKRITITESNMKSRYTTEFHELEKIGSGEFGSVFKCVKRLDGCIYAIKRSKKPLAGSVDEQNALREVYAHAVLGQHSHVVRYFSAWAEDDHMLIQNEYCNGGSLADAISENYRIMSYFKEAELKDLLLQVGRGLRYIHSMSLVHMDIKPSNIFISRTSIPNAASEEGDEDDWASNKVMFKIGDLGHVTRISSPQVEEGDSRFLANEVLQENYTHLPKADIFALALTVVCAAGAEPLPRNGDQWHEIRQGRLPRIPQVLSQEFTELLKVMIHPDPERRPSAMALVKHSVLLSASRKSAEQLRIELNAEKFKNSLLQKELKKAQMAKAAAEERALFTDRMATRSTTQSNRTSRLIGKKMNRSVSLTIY
measurement name: Kd (nM)
Write the number in nM without appending the unit.

In: What does the record list as Kd for CC(=O)NCC(=O)N1[C@@H]2CC[C@H]1c1ccc(Nc3ncc(C(F)(F)F)c(NC4CCC4)n3)cc12 (single isomer, unassigned) ?
Out: 78.7

Now for a further compound.
In: If you can, please state the reported Kd value of `CNC(=O)c1nn(C)c2c1C(C)(C)Cc1cnc(Nc3ccc(N4CCN(C)CC4)cc3)nc1-2` .
Out: 13.6

---

# measured target: Membrane-associated tyrosine- and threonine-specific cdc2-inhibitory kinase (Homo sapiens)
# label = label 1 if ΔTm < 3 °C else label 0

In: Decide: ΔTm of `CCOc1cc2ncc(C#N)c(Nc3ccc(F)c(Cl)c3)c2cc1NC(=O)/C=C/CN(C)C` strictly below 3 °C?
Out: label 1

In: Strictly below 3 °C in ΔTm? `COc1cc(Nc2c(C#N)cnc3cc(OCCCN4CCN(C)CC4)c(OC)cc23)c(Cl)cc1Cl`
Out: label 0

In: Is 3 °C strictly greater than the compound's reported ΔTm? compound: CC(=O)NCC(=O)N1[C@@H]2CC[C@H]1c1ccc(Nc3ncc(C(F)(F)F)c(NC4CCC4)n3)cc12 (single isomer, unassigned)
Out: label 1

In: Is ΔTm strictly under 3 °C for the entry `C=CCn1c(=O)c2cnc(Nc3ccc(N4CCN(C)CC4)cc3)nc2n1-c1cccc(C(C)(C)O)n1` ?
Out: label 0

In: Hello, I'm reviewing records and need to know if ΔTm of `CNC(=O)c1nn(C)c2c1C(C)(C)Cc1cnc(Nc3ccc(N4CCN(C)CC4)cc3)nc1-2` is below 3 °C. Could you check?
Out: label 0

Field: next compound
In: Is ΔTm strictly under 3 °C for the entry `CN1CCN(CCOc2cc(OC3CCOCC3)c3c(Nc4c(Cl)ccc5c4OCO5)ncnc3c2)CC1` ?
Out: label 1
